tgt: carboxypeptidase A (Bos taurus, UniProt P00730)
Sequence (P00730 111-419): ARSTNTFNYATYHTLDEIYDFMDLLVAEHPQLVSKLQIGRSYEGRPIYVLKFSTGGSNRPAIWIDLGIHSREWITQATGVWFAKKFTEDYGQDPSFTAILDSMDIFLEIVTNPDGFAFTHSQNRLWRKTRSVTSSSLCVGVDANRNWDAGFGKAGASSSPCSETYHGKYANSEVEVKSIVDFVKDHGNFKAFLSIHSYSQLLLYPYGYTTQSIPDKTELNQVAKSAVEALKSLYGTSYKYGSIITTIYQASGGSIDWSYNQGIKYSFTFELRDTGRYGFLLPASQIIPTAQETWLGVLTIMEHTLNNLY
pIC50: −log10 of the molar value.

compound	pIC50
O=C(O[C@@H]1Cc2c(O)cc(O)cc2O[C@@H]1c1cc(O)c(O)c(O)c1)c1cc(O)c(O)c(O)c1 [(-)-Epigallocatechin gallate, (-)-epigallocatechin gallate]	2.52
O=c1c(O)cc([C@H]2Oc3cc(O)cc(O)c3C[C@H]2O)cc2c([C@H]3Oc4cc(O)cc(O)c4C[C@H]3O)cc(O)c(O)c12 [Free theaflavin, free theaflavin]	< 2.30
O=C(O[C@@H]1Cc2c(O)cc(O)cc2O[C@@H]1c1cc(O)c(=O)c2c(O)c(O)cc([C@H]3Oc4cc(O)cc(O)c4C[C@H]3O)c2c1)c1cc(O)c(O)c(O)c1 [Theaflavin monogallate A, theaflavin monogallate A]	< 2.30
O=C(O[C@@H]1Cc2c(O)cc(O)cc2O[C@@H]1c1cc(O)c(O)c2c(=O)c(O)cc([C@H]3Oc4cc(O)cc(O)c4C[C@H]3O)cc12)c1cc(O)c(O)c(O)c1 [Theaflavin monogallate B, theaflavin monogallate B]	< 2.30

----------
assay_info: Acute oral toxicity in mice (LD50)
setup_conditions: mouse, in vivo, male ICR mice, 8 weeks old, read-out: LD50 of one week
quantity: LD50 at 168 h (mg/kg)

compound	quantity	recorded_measurement
O=C(O[C@@H]1Cc2c(O)cc(O)cc2O[C@@H]1c1cc(O)c(O)c(O)c1)c1cc(O)c(O)c(O)c1 [(-)-Epigallocatechin gallate, (-)-epigallocatechin gallate]	LD50 at 168 h	2310
